Test system: Amaranthus rudis (AMATA), tall water hemp
Assay: Postemergence herbicide evaluation, growth of Amaranthus rudis (AMATA)
Assay type: in vivo
Settings: Amaranthus tuberculatus, post-emergence, 336 h, 560 g ae/ha, 14 DAA; read-out: Ave. AMATA, percent reduction in plant size relative to the untreated control
Each entry below lists one item and its recorded pest or weed control at 560 g/ha value.
Give your result as the value with the unit written after it.

Consider the worked cases shown below.
{"columns": ["substanceSmiles", "recordedEndpoint", "measValue"],
 "data": [
  ["O=C(COc1ccc(Cl)cc1Cl)Nc1nccs1", "pest or weed control at 560 g/ha", "85%"],
  ["O=C(COc1ccc(Cl)cc1Cl)Nc1cc[nH]n1", "pest or weed control at 560 g/ha", "90%"]
]}

// below: pest or weed control at 560 g/ha requested for another molecule
Any idea what pest or weed control at 560 g/ha came out for N/C(=N\OC(=O)COc1ccc(Cl)cc1Cl)c1cccnc1 on Amaranthus rudis (AMATA), tall water hemp? 73%

----------
Tested on: Chenopodium album (CHEAL), common lambsquarters
Experiment: Postemergence herbicide evaluation, growth of Chenopodium album (CHEAL)
Type: in vivo
Conditions: Chenopodium album, post-emergence, 168 h, 280 g ae/ha, 7 DAA, percent reduction in plant size relative to untreated control; read-out: Ave. CHEAL
Reported pest or weed control at 280 g/ha is given for each of the following compounds.
Numeric only. Scale: %

Example cases with answers are listed next.
{"columns": ["substanceSmiles", "resultUnit", "measValue"],
 "data": [
  ["CN(OC(=O)COc1ccc(Cl)cc1Cl)C(=O)c1ccccc1", "%", 63],
  ["CS/C(C)=N\\OC(=O)COc1ccc(Cl)cc1Cl", "%", 65]
]}

// pest or weed control at 280 g/ha lookup, key: CC(=O)/C(C)=N/OC(=O)COc1ccc(Cl)cc1Cl 68

----------
Test system: Ambrosia artemisiifolia (AMBEL), common ragweed
Test: Postemergence herbicide evaluation, growth of Ambrosia artemisiifolia (AMBEL)
Type: in vivo
Details: Ambrosia artemisiifolia, post-emergence, 336 h, 280 g ae/ha, 14 DAA, percent reduction in plant size vs untreated control; read-out: AVE. AMBEL
Rule: pest or weed control at 280 g/ha below 80% gives yes, anything at or above gives no.

Examples from the recorded data:
{"columns": ["compound", "experimentalTarget", "label"],
 "data": [
  ["Cc1cc(NC(=O)COc2ccc(Cl)cc2Cl)n(C)n1", "Ambrosia artemisiifolia (AMBEL), common ragweed", "yes"],
  ["O=C(COc1ccc(Cl)cc1Cl)Nc1cccnc1", "Ambrosia artemisiifolia (AMBEL), common ragweed", "yes"],
  ["C=CCONC(=O)COc1ccc(Cl)cc1Cl", "Ambrosia artemisiifolia (AMBEL), common ragweed", "no"]
]}

For this compound, is pest or weed control at 280 g/ha lower than 80%? COc1ccc(CONC(=O)COc2ccc(Cl)cc2Cl)cc1 yes

Same thing, different compound: CONC(=O)COc1ccc(Cl)cc1Cl no

O=C(COc1ccc(Cl)cc1Cl)NOC1CCCCO1 (stereo not shown) , same question. no

Param item: O=C(COc1ccc(Cl)cc1Cl)Nc1ccccn1 no

Also O=C(COc1ccc(Cl)cc1Cl)Nc1ccnc(Cl)c1 , if possible. yes

Check O=C(COc1ccc(Cl)cc1Cl)Oc1ccccn1 too. yes
